system.name: hMITF-sp (Homo sapiens, UniProt O75030-10 1-413)
Sequence (O75030 other isoform, or with tags, fused parts or gaps): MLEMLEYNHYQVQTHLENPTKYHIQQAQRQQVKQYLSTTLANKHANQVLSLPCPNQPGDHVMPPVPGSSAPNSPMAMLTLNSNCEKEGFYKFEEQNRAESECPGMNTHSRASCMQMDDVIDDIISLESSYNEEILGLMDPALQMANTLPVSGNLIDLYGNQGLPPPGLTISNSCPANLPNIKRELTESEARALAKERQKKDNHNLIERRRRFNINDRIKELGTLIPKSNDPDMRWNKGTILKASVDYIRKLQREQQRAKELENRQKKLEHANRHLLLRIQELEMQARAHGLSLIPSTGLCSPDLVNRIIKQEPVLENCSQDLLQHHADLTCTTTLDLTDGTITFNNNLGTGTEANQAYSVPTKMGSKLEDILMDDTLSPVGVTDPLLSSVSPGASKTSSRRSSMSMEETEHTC
method.notes: FCS; 300 mM KCl; Single-molecule: 0.5 nM DNA, 10 mM Tris pH 7.4, 0.1 mM EDTA, 165 or 300 mM KCl, 1 mM MgCl2, 143 mM 2-ME, 0.01% Tween-20, 0.1 mg/mL BSA. EMSA: 10 mM Hepes pH 7.9, 50 mM NaCl, 5 mM MgCl2, 0.1 mM EDTA, 2 mM DTT, 5% ethylene glycol, 5% glycerol, BSA, 30 min on ice
particulars: protein: recombinant; tags: none (His6-SUMO removed by ULP-1); unlabeled; chain copies: 2; label: Cy3B (5' positive strand); CF660R (5' negative strand); blunt
measured.parameter: Kd (nM)
Numbers only; they are read as nM.

# input // returns reported Kd for input M-box smFRET probe (dsDNA, 5' C6-amino linker on both strands) DNA 1: GAGATCATGTGTTGA DNA 2: TCAACACATGATCTC
# output 5.8

Taken from paper PMC11467436.
